meta.source: PubChem BioAssay (Tox21)

Assay: qHTS assay to identify small molecule antagonists of the estrogen related receptor signaling pathway with the pleiotropic PPARgamma coactivator (PGC) from Tox21 10K library - cell viability counter screen (AID 1224840); note: nearly all actives have a fitted effect of over 40% in size
Conditions: PGC/ERR reporter cells viability, CellTiter-Fluor, 17.5 h; series mostly up to 92.4 µM
Records with an inconclusive call do not appear. Activity calls are given as the source filed them. Calls come from the whole dose curve; as a rule, active = well fitted cell-killing curve with a large enough effect in the repeat runs (not every such curve was filed as active); inconclusive = weak or mixed curves, or effect the other way; inactive = no such curve, though single readings can be large or run the other way.
Please state which outcome applies, choosing from active, inactive

Cc1c(O)cccc1C(=O)N[C@@H](CSc1ccccc1)[C@H](O)CN1C[C@H]2CCCC[C@H]2C[C@H]1C(=O)NC(C)(C)C
active
CC(C)CCCCCCc1ccc(O)cc1
active
COc1ccc(Cc2cnc(N)nc2N)cc1OC
inactive
c1ccc2c(c1)CCCC2C1=NCCN1 (configuration not stated)
inactive

Kindly provide the recorded test outcome for the following molecule: CCN(CC)C(=O)Nc1ccc(OCC(O)CNC(C)(C)C)c(C(C)=O)c1 (configuration not stated) inactive

Kindly provide the recorded test outcome for the following molecule: CC(C(O)c1ccc(O)cc1)N1CCC(Cc2ccccc2)CC1 (configuration not stated) inactive

====

Test: qHTS RealTime-Glo MT Cell Viability Assay in HEK293 cells - 0 hour (AID 1224880); note: top concentration of the series differs between compounds; nearly all actives have a fitted effect of over 45% in size
Conditions: RealTime-Glo luminescence; series mostly up to 76.8 µM
Records with an inconclusive call do not appear. The source made the active and inactive calls. Calls come from the whole dose curve; as a rule, active = well fitted cell-killing curve with a large enough effect in the repeat runs; inconclusive = weak or mixed curves, or effect the other way; inactive = flat fitted curve, though single readings scatter.
Please state which outcome applies, choosing from YES = active, NO = inactive

O=C(Cl)c1cccc(C(=O)Cl)c1
NO
COc1ccc(CCN2CCC(Nc3nc4ccccc4n3Cc3ccc(F)cc3)CC2)cc1
NO
CC1COC(=O)O1 (stereo not given)
NO
C#CC(C)(CC)OC(=O)c1ccccc1C(=O)O (stereo not given)
NO
N[C@@H]1CONC1=O
NO

Kindly provide the recorded test outcome for the following molecule: CC(=O)OCC1=C(C(=O)O)N2C(=O)[C@@H](NC(=O)Cc3cccs3)[C@H]2SC1 NO

Kindly provide the recorded test outcome for the following molecule: CC(=O)CC(C)=O NO

Kindly provide the recorded test outcome for the following molecule: c1cc(C(c2ccc(OCC3CO3)cc2)C(c2ccc(OCC3CO3)cc2)c2ccc(OCC3CO3)cc2)ccc1OCC1CO1 (stereo not given) NO

Kindly provide the recorded test outcome for the following molecule: CC(=O)N[C@@H](CS)C(=O)O NO

Kindly provide the recorded test outcome for the following molecule: O=C(O)c1cc(Cl)cc(Cl)c1 NO

Kindly provide the recorded test outcome for the following molecule: Oc1c(Cl)cc(Cl)cc1Sc1cc(Cl)cc(Cl)c1O NO

====

Biological target: Estrogen receptor beta (Homo sapiens) (UniProt Q92731)
Sequence (Q92731 whole entry, looked up): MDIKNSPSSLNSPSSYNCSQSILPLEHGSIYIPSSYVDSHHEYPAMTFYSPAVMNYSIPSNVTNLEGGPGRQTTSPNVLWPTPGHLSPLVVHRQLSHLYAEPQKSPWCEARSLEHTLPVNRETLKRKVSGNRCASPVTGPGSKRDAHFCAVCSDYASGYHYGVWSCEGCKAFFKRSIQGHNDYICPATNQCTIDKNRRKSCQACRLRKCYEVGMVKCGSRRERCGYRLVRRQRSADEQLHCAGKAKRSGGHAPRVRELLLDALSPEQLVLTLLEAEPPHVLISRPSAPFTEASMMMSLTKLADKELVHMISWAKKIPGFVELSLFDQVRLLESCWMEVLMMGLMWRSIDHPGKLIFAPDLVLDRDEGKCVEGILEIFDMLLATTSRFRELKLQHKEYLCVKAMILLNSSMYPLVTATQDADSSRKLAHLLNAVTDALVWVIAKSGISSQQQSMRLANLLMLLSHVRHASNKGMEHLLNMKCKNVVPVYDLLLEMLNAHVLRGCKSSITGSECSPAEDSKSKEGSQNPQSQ
Assay: qHTS assay to identify small molecule antagonists of the estrogen receptor beta (ER-beta) signaling pathway (AID 1259378)
Settings: ER-beta-UAS-bla HEK293T, beta-lactamase FRET ratio, 16 h; series mostly up to 92.4 µM
Inconclusive results are not listed. The source made the active and inactive calls. Calls follow the shape of the dose curve; as a rule, active = well fitted inhibition curve with a large enough effect in the signal ratio in the repeat runs (not every such curve was filed as active); inconclusive = weak or mixed curves, or effect the other way; inactive = no such curve, though single readings can be large or run the other way; the % refers to the signal ratio.
Please state which outcome applies, choosing from t = active, f = inactive

Clc1ccc2c(c1)C(N1CCNCC1)=Nc1ccccc1O2
f
OCC(CO)N[C@H]1C[C@](O)(CO)[C@@H](O)[C@H](O)[C@H]1O
f
CC(=O)C1=C(C)[C@@H]2C[C@@]3(C1)[C@H](C)CC[C@H]3C2(C)C
f
C[N+]1([O-])CCOCC1
f
CCCCCC(=O)O[C@]1(C(C)=O)CC[C@H]2[C@@H]3CCC4=CC(=O)CC[C@]4(C)[C@H]3CC[C@@]21C
t

Kindly provide the recorded test outcome for the following molecule: Cc1cccc(O)c1C f

Kindly provide the recorded test outcome for the following molecule: Cc1cc(C(C)(C)C)c(O)c(C(C)(C)C)c1 f

Kindly provide the recorded test outcome for the following molecule: C1COC(NC(C2CC2)C2CC2)=N1 f

Kindly provide the recorded test outcome for the following molecule: COC(=O)c1cccc(C(=O)OC)c1 f

Kindly provide the recorded test outcome for the following molecule: CCN(CC)C(=O)Nc1ccc(OCC(O)CNC(C)(C)C)c(C(C)=O)c1 (centres undefined) f

Kindly provide the recorded test outcome for the following molecule: O=C1NCC2(CCN(CCc3ccccc3)CC2)O1 f

Kindly provide the recorded test outcome for the following molecule: CN1C(=O)c2ccc([N+](=O)[O-])cc2C1=O f

====

Experiment: qHTS assay to identify small molecule agonists of the constitutive androstane receptor (CAR) signaling pathway - cell viability counter screen (AID 1224836); note: nearly all actives have a fitted effect of over 45% in size
Conditions: HepG2-CYP2B6-hCAR viability, CellTiter-Fluor, 23 h, PK11195 added to every well; series mostly up to 92.4 µM
Results filed as inconclusive are left out. Activity calls are given as the source filed them. Calls follow the shape of the dose curve; as a rule, active = well fitted cell-killing curve with a large enough effect in the repeat runs; inconclusive = weak or mixed curves, or effect the other way; inactive = flat fitted curve, though single readings scatter.
Please state which outcome applies, choosing from active, inactive

NC(=Nc1ccccc1)Nc1ccccc1
active
CCc1cc(C(C)(C)C)c(O)c(C(C)(C)C)c1
inactive
CCN(CC)C(=O)Nc1ccc(OCC(O)CNC(C)(C)C)c(C(C)=O)c1 (stereo not drawn)
inactive
CC1=C(C=O)C(C)(C)CC=C1
inactive
CC(C)(O)CCC(C)(C)O
inactive

Kindly provide the recorded test outcome for the following compound: O=C(O)CP(=O)(O)O inactive

Kindly provide the recorded test outcome for the following compound: CC(=O)Nc1ccc(C(=O)CCl)cc1 inactive

Kindly provide the recorded test outcome for the following compound: CCCCN(CCO)CCCC inactive

Kindly provide the recorded test outcome for the following compound: c1ccc2c(c1)CCCC2C1=NCCN1 (stereo not drawn) inactive

Kindly provide the recorded test outcome for the following compound: O=C1CC2(CCCC2)CC(=O)N1CCCCN1CCN(c2ncccn2)CC1 inactive

Kindly provide the recorded test outcome for the following compound: CCN1CCCC1CNC(=O)c1cc(S(=O)(=O)CC)c(N)cc1OC (stereo not drawn) inactive

Kindly provide the recorded test outcome for the following compound: COc1cc(C(=S)N2CCOCC2)ccc1O inactive

Kindly provide the recorded test outcome for the following compound: CCC[C@H](N[C@@H](C)C(=O)N1[C@H](C(=O)O)C[C@@H]2CCCC[C@@H]21)C(=O)OCC inactive

====

Test: qHTS assay to identify small molecule antagonists of the peroxisome proliferator-activated receptor delta (PPARd) signaling pathway - cell viability counter screen (AID 743213); note: nearly all actives have a fitted effect of over 50% in size
Conditions: PPARd-bla HEK293H viability, CellTiter-Glo luminescence, 17 h; series mostly up to 62 µM
Inconclusive results are not listed. Calls of active or inactive are those of the source. Calls come from the whole dose curve; as a rule, active = well fitted cell-killing curve with a large enough effect in the repeat runs; inconclusive = weak or mixed curves; inactive = no such curve, though single readings can be large or run the other way.
Please state which outcome applies, choosing from Y for active, N for inactive

Solved cases below.
O
N
CC(C)(C)c1ccccc1
N
O=C(O)c1cn(-c2ccc(F)cc2)c2cc(N3CCNCC3)c(F)cc2c1=O
N
Cc1ccc(-c2cc(C(F)(F)F)nn2-c2ccc(S(N)(=O)=O)cc2)cc1
N
C=C(C)C(=O)O
N

Kindly provide the recorded test outcome for the following compound: CC(C)CCOCc1ccccc1 N

Kindly provide the recorded test outcome for the following compound: COc1ccc(COC(C)=O)cc1 N

Kindly provide the recorded test outcome for the following compound: C/C=C/c1ccc(OCC)c(O)c1 N

Kindly provide the recorded test outcome for the following compound: NNCCc1ccccc1 N

Kindly provide the recorded test outcome for the following compound: CCCCN(CCO)CCCC N

Kindly provide the recorded test outcome for the following compound: O=Nc1ccc(Nc2ccccc2)cc1 Y

Kindly provide the recorded test outcome for the following compound: Oc1ccc(Cl)cc1Cc1cc(Cl)ccc1O Y

Kindly provide the recorded test outcome for the following compound: O=C(Oc1ccccc1)c1ccccc1O N

Kindly provide the recorded test outcome for the following compound: CCN(CC)CCOc1ccc(/C(=C(\Cl)c2ccccc2)c2ccccc2)cc1 Y

Kindly provide the recorded test outcome for the following compound: O=C1OC2(c3ccc(O)cc3Oc3cc(O)ccc32)c2ccccc21 N

====

Test: qHTS assay for small molecule agonists of the antioxidant response element (ARE) signaling pathway - cell viability counter screen (AID 743203); note: nearly all actives have a fitted effect of over 55% in size
Details: ARE-bla HepG2 viability, CellTiter-Glo luminescence, 16 h; series mostly up to 73.3 µM
Source text: National Center for Advancing Translational Sciences [NCATS] NIH Chemical Genomics Center [NCGC] U.S. Environmental Protection Agency [EPA] National Institutes of Environmental Health Sciences [NIEHS] National Toxicology Program [NTP] U.S. Food and Drug Administration [FDA] Oxidative stress has been implicated in the pathogenesis of a variety of diseases ranging from cancer to neurodegeneration. […] The activation of the report gene under culture conditions can be detected by fluorescence intensity. […]
Results filed as inconclusive are left out. Active and inactive are the calls of the source. Calls come from the whole dose curve.
Please state which outcome applies, choosing from active, inactive

CNCCC(Oc1ccc(C(F)(F)F)cc1)c1ccccc1 (stereo not given)
active
CC(C)(C)c1cc(C(C)(C)C)c(O)c(C(C)(C)C)c1
inactive
CC(C)(O)CCC(C)(C)O
inactive
Cc1cccc(O)c1C
inactive
CC(=O)O[C@]1(C(C)=O)CC[C@H]2[C@@H]3C[C@H](C)C4=CC(=O)CC[C@]4(C)[C@H]3CC[C@@]21C
inactive
O=C1OC2(c3ccc(O)cc3Oc3cc(O)ccc32)c2ccccc21
inactive
CCN(CC)c1ccc2c(C)cc(=O)oc2c1
inactive
Cc1cccc2n[nH]nc12
inactive
CC(C)CCCCCCc1ccc(O)cc1
inactive
CC(C)(C)c1ccc(O)c(C(C)(C)C)c1
active

Kindly provide the recorded test outcome for the following compound: Cc1cccc([N+](=O)[O-])c1C(=O)O inactive

Kindly provide the recorded test outcome for the following compound: CCC(C)(Oc1ccc(C2(c3ccc(OC(C)(CC)C(=O)O)cc3)CCCCC2)cc1)C(=O)O (stereo not given) inactive

Kindly provide the recorded test outcome for the following compound: O=C(O)Cn1cnnn1 inactive

Kindly provide the recorded test outcome for the following compound: Nc1nc2ccccc2[nH]1 inactive

Kindly provide the recorded test outcome for the following compound: CC1=C(C=O)C(C)(C)CC=C1 inactive
